- study_system: HLA A2.1 molecule (human)
- protocol_text: T2 cells, flow cytometry (BB7.2); complex dissociation
readout: DC50

> print(dat)
                                      binder  measured.value
 1  AMLGTHTMEV (modifications not checked) [gp100 177]           > 6 h
 2  RLFFYRKSV (modifications not checked) [mhp 572]           < 2 h
 3  FLFWLMDTYV (modifications not checked) [mp 534]           > 6 h
 4  DLQVNSLQTV (modifications not checked) [mhp 988]           < 2 h
 5  ILAKFLHWL (modifications not checked) [mhp 540]           > 6 h
 6  HLYQGCQVV (modifications not checked) [HER-2/neu 48]           > 8 h
 7  ALCRWGLLL (modifications not checked) [HER-2/neu 5]           > 8 h
 8  YLQVNSLQTV (modifications not checked) [mhp 988Y1]           > 6 h
 9  TLEEITGYL (modifications not checked) [HER-2/neu 402]           < 2 h
10  FLSTLVHGV (modifications not checked) [mp 876]           > 6 h
11  ILATFLAWL (modifications not checked) [mp 530]           > 6 h
12  KLTPLCVSL (modifications not checked) [K9L]           > 6 h
